# Test system: MALME-3M melanoma
# Method Summary: NCI-60 one-dose screen, 48 h (100 = growth as untreated, 0 = no growth, -100 = all killed)
# Test Parameters: 10 µM unless noted
This is part of a sample that, as a whole, favours compounds with a hit. Of some 83,000 tested, about 20% had one in any assay.
Below: a set of entries, each annotated with reported growth.
Express it in %; write the number only.

Worked cases, growth given:
# Compound, Display Unit, growth
measured = [
    ("CC1(C)OC2OC3C(CN)OC(c4ccccc4)OC3C2O1 (stereo not given)", "%", 120),
    ("COc1ccc(C(=O)OC2C(OC3C(O)COC(O[C@H]4C[C@H]5[C@@H]6CC=C7C[C@@H](O)CC[C@]7(C)[C@H]6CC[C@]5(C)[C@H]4[C@H](C)C(=O)CCC(C)C)C3OC(=O)C(C)C)OCC(O)C2O)cc1 (stereo not given in full)", "%", 6.67),
    ("C=CCOc1ccc2c(C)cc(=O)oc2c1", "%", 132),
    ("CC1=CCC2C1CC=C(C)C(CC[C@H]1[C@@](C)(O)CCC3OC(C)(C)[C@H](OC(=O)c4ccccc4)CC[C@@]31C)C2(C)C (stereo not given in full)", "%", 111),
    ("Cc1cc(O)c2cc3c(O)c(O)ccc3cc2c1", "%", 109),
    ("COc1ccc2c(c1)OC1=C(C(=O)OC1)C2c1cc(OC)c2c(c1)OCCO2 (stereo not given)", "%", 62.9),
    ("CCN(CC)c1ccc(/C=N/NC(=O)C[N+](C)(C)C)cc1", "%", 92.6),
    ("CC(C)c1ccc(-c2cnc3nonc3n2)cc1", "%", 61.2),
    ("Cc1ccc(NC(=O)c2cc(NCc3cc(O)ccc3O)ccc2O)cc1", "%", 97.9),
]

Please find the next compound below.
Problem: Query: growth; subject: COc1ccc(C(=O)OC2C(OC3C(O)COC(O[C@H]4C[C@H]5[C@@H]6CC=C7C[C@@H](O)CC[C@]7(C)[C@H]6CC[C@]5(C)[C@H]4[C@H](C)C(=O)CCC(C)C)C3OC(N)=O)OCC(O)C2O)cc1 (stereo not given in full)
Solution: -34.3

====

# System: NCI-H23 lung
# Method Summary: NCI-60 one-dose screen, 48 h (100 = growth as untreated, 0 = no growth, -100 = all killed)
# Test Parameters: 10 µM unless noted
# Description: Growth inhibition of the NCI-H23 human Non-Small Cell Lung tumor cell line is measured as a screen for anti-cancer activity. Cells are grown in 96 well plates and exposed to the test compound for 48 hours. Compounds are tested at a single concentration, which is 10^-5 M for most compounds. The reported endpoint is percent growth (GI% or GIPRCNT), where numbers from 0 - 100% represent growth inhibition, and numbers from -100% - 0 represent cell death. […]
The panel holds about 83,000 compounds, 20% with a hit somewhere; the sample as a whole holds those more often.
Property Name: growth (%)
Express it in %; write the number only.

Worked cases, growth given:
# Compound, growth / %
measured = [
    ("N=C(N)c1ccc(-c2ccc(-c3cccs3)s2)cc1F", -62.8),
    ("Brc1ccsc1Br", 107),
    ("Cc1ccc(C)c(NC(=O)c2sc3c(=O)[nH]cnc3c2C)c1", 93.4),
]

Problem: Query: growth; subject: c1ccc(-c2nnn(-c3ccccc3)n2)cc1
Solution: 105

Problem: Query: growth; subject: CC(=O)Nc1ccc(/C=N/N2CCCCCC2)cc1
Solution: 103

Problem: Query: growth; subject: CC1=C(/C=C/C(C)=C/C=C(C(=O)O)\C(C)=C\C(=O)O)C(C)(C)CCC1
Solution: 101

====

# Tested on: SF-295 CNS
# Method Summary: NCI-60 one-dose screen, 48 h
# Test Parameters: 10 µM unless noted
This is part of a sample that, as a whole, favours compounds with a hit. Of some 83,000 tested, about 20% had one in any assay. The source made the active and inactive calls. The calls were made as follows: active = growth percent below 10; inactive = the rest.
Please state which outcome applies, choosing from active, inactive

# Compound, Answer Label
data = [
    ("COc1ccc2c(c1)C1=NN(C(=O)CO)[C@H](c3ccc(OC(F)(F)F)cc3)[C@@H]1CC2", "inactive"),
    ("COc1ccc(/C=C/C(=O)CCC(=O)O)cc1OC", "inactive"),
]

Problem: Assay result, entry Cc1ccsc1C(=O)CC(=O)C(F)(F)C(F)(F)C(F)(F)F — outcome?
Solution: inactive

Problem: Assay result, entry CCOC(=O)c1cc(C(=O)OCC)c(C)nc1C — outcome?
Solution: inactive

Problem: Assay result, entry O=C(/C=C/c1ccc(F)cc1)N1CCN(C(=O)/C=C/c2ccc(C(F)(F)F)cc2)CC1 — outcome?
Solution: inactive

Problem: Assay result, entry CCN(CC)CCCCCCCCNc1c2ccc(Cl)cc2nc2ccc(OC)cc12 — outcome?
Solution: active

====

# Test system: HCT-15 colon
# Method Summary: NCI-60 one-dose screen, 48 h (100 = growth as untreated, 0 = no growth, -100 = all killed)
# Test Parameters: 10 µM unless noted
The panel holds about 83,000 compounds, 20% with a hit somewhere; the sample as a whole holds those more often.
Property Name: growth (%)
Express it in %; write the number only.

# Compound, Property Name, Endpoint Value
data = [
    ("ClCCn1cnc2c(SCc3ccccc3Cl)ncnc21", "growth", 21.3),
    ("ClCc1c(Cl)c(Cl)c(Cl)c(CCl)c1Cl", "growth", 4.87),
    ("O=C(CCl)Nc1cc(O)c2c(c1)C(=O)c1cccc(O)c1C2=O", "growth", -82.2),
    ("Fc1ccc(-c2nc(-c3ccc(-c4nc5ccc(F)cc5[nH]4)cc3)no2)cc1", "growth", 86.1),
    ("Fc1cc(-c2cnc3nonc3n2)c(Cl)cc1Cl", "growth", 51),
    ("CC1CCCN(CCCCOc2ccc(-c3ccc(C#N)cc3)cc2)C1 (stereo not drawn)", "growth", 56.4),
]

Problem: Query: growth; subject: Cc1ccc(C)c(NC(=O)c2sc3c(=O)[nH]cnc3c2C)c1
Solution: 49.8

Problem: Query: growth; subject: COc1cc(-c2nn(C(=O)NCCN3CCN(C)CC3)cc2-c2ccncc2)ccc1Cl
Solution: 88.7

====

# System: SW-620 colon
# Method Summary: NCI-60 one-dose screen, 48 h (100 = growth as untreated, 0 = no growth, -100 = all killed)
# Test Parameters: 10 µM unless noted
This is part of a sample that, as a whole, favours compounds with a hit. Of some 83,000 tested, about 20% had one in any assay.
Criterion: growth meeting or surpassing 80%. Met: 1. Not met: 0.

Below, 5 compounds whose answers are already recorded.
# Compound, Answer Label
measured = [
    ("CC(=O)c1ccc(N2C(=O)c3ccc(Oc4ccccc4)cc3C2=O)cc1", 1),
    ("CCN(CC)c1ccc(/C=N/N=C(N)N)cc1", 0),
    ("C=C[C@H]1CCC/C=C/[C@@H]2C[C@H](O)C[C@H]2[C@H](O)/C=C/C(=O)O1", 0),
    ("O=C1Nc2ccccc2/C1=C\\c1nc(C2CCN(S(=O)(=O)c3ccc(F)cc3)CC2)n2ccccc12", 1),
    ("ClC1(Cl)C2CCCCCCC21 (stereo unspecified)", 1),
]

Could you now consider this next compound?
Problem: Please tell me: is the compound CC1=C(O)C(=O)CC1 at or over 80% in terms of growth?
Solution: 1

====

# Test system: OVCAR-8 ovarian
# Method Summary: NCI-60 one-dose screen, 48 h (100 = growth as untreated, 0 = no growth, -100 = all killed)
# Test Parameters: 10 µM unless noted
The panel holds about 83,000 compounds, 20% with a hit somewhere; the sample as a whole holds those more often.
Property Name: growth (%)
Express it in %; write the number only.

Worked cases, growth given:
# Compound, growth [%]
measured = [
    ("CC(=O)O[C@H]1CC[C@]2(C)[C@H]3CC=C4[C@@H]5CC(C)(C)CC[C@]5(C(=O)OCC(COC(=O)C(Cl)Cl)(COC(=O)C(Cl)Cl)NC(=O)C(Cl)Cl)CC[C@@]4(C)[C@]3(C)CC[C@H]2C1(C)C", 68.5),
    ("COc1cnc2c(c1)C(=O)c1c-2n(CCCN2CCN(C)CC2)c(=O)c2cc(Cl)ccc12", 31),
    ("OCCN(CCO)c1ccc2ccccc2c1", 104),
    ("CC(C)(C)OC(=O)N1CCCN(CCNc2nccc(-c3c(-c4cccc(O)c4)nc4sccn34)n2)S1(=O)=O", 96.8),
    ("C/C(=N\\Nc1ccc([N+](=O)[O-])cn1)c1ccc(N)cc1", 109),
]

Problem: Query: growth; subject: Clc1cccc(CNc2c3ccccc3nc3ccccc23)c1
Solution: 31.1

Problem: Query: growth; subject: O=c1c2cc(Cl)ccc2oc2ccc(OCCCCCN3CCCCC3)cc12
Solution: 55.1

Problem: Query: growth; subject: CCOC(=O)C1=C(C)NC(=S)NC1c1ccccc1 (stereo not given)
Solution: 103

Problem: Query: growth; subject: Cc1ccc(C)c2c1SC1=NNC(Oc3ccc(Cl)cc3)=C(C#N)C(=N)N12
Solution: 108

Problem: Query: growth; subject: ClC1(Cl)C2CCCCCCC21 (stereo not given)
Solution: 123

Problem: Query: growth; subject: CC(C)[C@@]12C[C@@H](OC(=O)C3CO3)[C@@](C)(O1)[C@@H]1CC[C@@H](C)[C@H]1[C@@H]2OC(=O)/C=C/c1ccccc1 (stereo not given in full)
Solution: 22.4

Problem: Query: growth; subject: COC(=O)c1ccc2c(c1)nc(-c1cc3ccccc3[nH]c1=O)n2-c1cc(C(C)(C)C)[nH]n1
Solution: 54

Problem: Query: growth; subject: ClCCn1cnc2c(SCc3ccccc3Cl)ncnc21
Solution: 47.5

Problem: Query: growth; subject: CC1(C)OC2OC3C(CN)OC(c4ccccc4)OC3C2O1 (stereo not given)
Solution: 103

Problem: Query: growth; subject: COc1ccc(-c2ccc(-c3ccc(C(=N)N)s3)s2)cc1
Solution: -66.9
